target.desc: BRD4 Bromodomain 1 (BRD4 BD1) (Homo sapiens)
Construct: 44-168 and BRD4 BD2
assay.procedure: AlphaScreen binding assay, BRD4 BD1
run.parameters: His-tagged BRD4 BD1 50 nM, biotinylated H4 (1-21) K5/8/12/16 tetra-acetylated peptide 50 nM, compounds listed under IC50 range headings
Measured IC50 accompanies every entry in the list below.

[[record]]
compound = "COC(=O)N1c2ccc(-c3cnn(CCO)c3)c(OCC3CCOCC3)c2CC[C@@H]1C"
value_reported = "1 to 10 µM"

[[record]]
compound = "COC(=O)N1c2ccc(-c3cnn(C4CCNCC4)c3)c(OCCN(C)S(C)(=O)=O)c2CC[C@@H]1C"
value_reported = "1 to 10 µM"


What value of measured IC50 is listed for `CC(=O)N1c2ccc(-c3cnn(CC(C)(C)O)c3)c(OC[C@H]3CCC(=O)N3)c2CC[C@@H]1C` ?
1 to 10 µM

What value of measured IC50 is listed for `CC(=O)N1c2ccc(-c3cnn(C4CC4)c3)c(OC(C)(C)C(N)=O)c2CC[C@@H]1C` ?
1 to 10 µM

What value of measured IC50 is listed for `COC(=O)N1c2ccc(-c3cnn([C@@H]4CCNC[C@H]4F)c3)c(Oc3ccc(F)cc3)c2CC[C@@H]1C` ?
0.1 to 1 µM

What value of measured IC50 is listed for `CCCOc1c(-c2ccc(S(C)(=O)=O)cc2)ccc2c1CC[C@H](C)N2C(C)=O` ?
1 to 10 µM

What value of measured IC50 is listed for `CCCOc1c(-c2cn3ccccc3n2)ccc2c1CC[C@H](C)N2C(C)=O` ?
1 to 10 µM

What value of measured IC50 is listed for COC(=O)N1c2ccc(-c3cnn(C4CCNCC4OC)c3)c(OC3CCC3)c2CC[C@@H]1C (some centres unmarked) ?
0.1 to 1 µM

What value of measured IC50 is listed for `CC(=O)N1c2ccc(-c3cnn(CCO)c3)c(OC[C@H]3CCNC3)c2CC[C@@H]1C` ?
1 to 10 µM

What value of measured IC50 is listed for `CC(=O)N1c2ccc(-c3cnn(C4CC4)c3)c(OCC3(C)COC3)c2CC[C@@H]1C` ?
0.1 to 1 µM

====

Measured IC50 accompanies every entry in the list below.
target.desc: BRD4 Bromodomain 1 (BRD4 BD1) (Homo sapiens, UniProt O60885)
Construct: 44-168 and BRD4 BD2
assay.procedure: AlphaScreen binding assay, BRD4 BD1
run.parameters: His-tagged BRD4 BD1 50 nM, biotinylated H4 (1-21) K5/8/12/16 tetra-acetylated peptide 50 nM, compounds listed under IC50 range headings

These solved cases illustrate the format of a correct answer.
[[record]]
molecule = "CC(=O)N1c2ccc(-c3cnn(CCO)c3)c(Oc3nc(C)cc(C)n3)c2CC[C@@H]1C"
value_reported = "1000 to 10000 nM"

[[record]]
molecule = "CC(=O)N1c2ccc(-c3cnn(C(C)(C)CO)c3)c(Oc3ncc(F)cn3)c2CC[C@@H]1C"
value_reported = "100 to 1000 nM"

[[record]]
molecule = "COC(=O)N1c2ccc(-c3cnn([C@@H]4CCNC[C@@H]4F)c3)c(Oc3ccc(F)cc3)c2CC[C@@H]1C"
value_reported = "100 to 1000 nM"

[[record]]
molecule = "CC(=O)N1c2ccc(-c3cnn(C4CCNCC4)c3)c(Oc3nccc(C(F)(F)F)n3)c2CC[C@@H]1C"
value_reported = "1000 to 10000 nM"

[[record]]
molecule = "C[C@H]1CCc2c(ccc(-n3cc(N4CCOCC4)cn3)c2Oc2ccccc2)N1C(=O)C1CC1"
value_reported = "1000 to 10000 nM"

[[record]]
molecule = "COC(=O)N1c2ccc(-c3cnn(C4CC4)c3)c(Oc3ncc(C)cn3)c2CC[C@@H]1C"
value_reported = "100 to 1000 nM"

[[record]]
molecule = "C[C@H]1CCc2c(ccc(-c3ccn[nH]3)c2OC2CCC2)N1C(=O)C1CC1"
value_reported = "1000 to 10000 nM"

[[record]]
molecule = "C[C@H]1CCc2c(ccc(-c3cnn(C4CCNCC4)c3)c2OC2CCC2)N1C(=O)C1CC1"
value_reported = "100 to 1000 nM"

[[record]]
molecule = "COC(=O)N1c2ccc(-c3cnn(C4CC5CN(C)CC5C4)c3)c(Oc3ccc(F)cc3)c2CC[C@@H]1C (some centres unmarked)"
value_reported = "100 to 1000 nM"

[[record]]
molecule = "CC(=O)N1c2ccc(-c3cnn(C4CC4)c3)c(Oc3ncc4ccccc4n3)c2CC[C@@H]1C"
value_reported = "100 to 1000 nM"


What value of measured IC50 is listed for `CC(=O)N1c2ccc(-c3cnn(C4CC4)c3)c(OCC3CNC3)c2CC[C@@H]1C` ?
≥ 10000 nM

What value of measured IC50 is listed for `COC(=O)N1c2ccc(-c3cnn(C4CCNCC4)c3)c(Oc3ccc(F)c(F)c3)c2CC[C@@H]1C` ?
100 to 1000 nM

What value of measured IC50 is listed for `COC(=O)N1c2ccc(-c3cn(C)c(N4CCNCC4)n3)c(OC3CCC3)c2CC[C@@H]1C` ?
100 to 1000 nM

What value of measured IC50 is listed for `COc1cnc(Oc2c(-c3cnn(CCO)c3)ccc3c2CC[C@H](C)N3C(C)=O)nc1` ?
100 to 1000 nM

What value of measured IC50 is listed for `CC(=O)N1c2ccc(-c3cnn(C4CCNCC4)c3)c(Oc3ccc(F)cc3)c2CC[C@@H]1C` ?
100 to 1000 nM

What value of measured IC50 is listed for `COc1cccc(Oc2c(-c3cnn(C4CCNCC4)c3)ccc3c2CC[C@H](C)N3C(C)=O)c1` ?
100 to 1000 nM

What value of measured IC50 is listed for `CC(=O)N1c2c(F)cc(-c3cn(C)nn3)c(Oc3ccccc3)c2CC[C@@H]1C` ?
1000 to 10000 nM

====

Measured pIC50 accompanies every entry in the list below.
target.desc: BRD4 Bromodomain 1 (BRD4 BD1) (Homo sapiens, UniProt O60885)
Construct: 44-168 and BRD4 BD2
assay.procedure: AlphaScreen binding assay, BRD4 BD1
run.parameters: His-tagged BRD4 BD1 50 nM, biotinylated H4 (1-21) K5/8/12/16 tetra-acetylated peptide 50 nM, compounds listed under IC50 range headings
pIC50: −log10 of the molar value.

These solved cases illustrate the format of a correct answer.
[[record]]
given_smiles = "CC(=O)N1c2ccc(-c3cnn(C4CCNCC4)c3)c(OCC(=O)N(C)C)c2CC[C@@H]1C"
value_reported = "5.00 to 6.00"

[[record]]
given_smiles = "Cc1cccc(Oc2c(-c3cnn(C4CCNCC4)c3)ccc3c2CC[C@H](C)N3C(=O)C2CC2)n1"
value_reported = "6.00 to 7.00"

[[record]]
given_smiles = "CC(=O)N1c2ccc(-c3cnn(C4CCNCC4)c3)c(Oc3ccc(C(N)=O)cc3)c2CC[C@@H]1C"
value_reported = "6.00 to 7.00"

[[record]]
given_smiles = "CC(=O)N1c2ccc(-c3cnn(C4CC4)c3)c(Oc3ncc4cn[nH]c4n3)c2CC[C@@H]1C"
value_reported = "5.00 to 6.00"

[[record]]
given_smiles = "COC(=O)N1c2ccc(-c3cnn(CCS(C)(=O)=O)c3)c(OCC(C)C)c2CC[C@@H]1C"
value_reported = "5.00 to 6.00"

[[record]]
given_smiles = "CC(=O)N1c2ccc(-c3cnn(C4CC4)c3)c(OC3CNC3)c2CC[C@@H]1C"
value_reported = "≤ 5.00"

[[record]]
given_smiles = "COC(=O)N1c2ccc(-c3cnn(C4CCNCC4)c3)c(Oc3ccc(C#N)cc3Cl)c2CC[C@@H]1C"
value_reported = "6.00 to 7.00"


Consider the additional molecule presented here.
What value of measured pIC50 is listed for `C[C@H]1CCc2c(Oc3ccccc3)c(-c3cn[nH]c3)cc(F)c2N1C(=O)C1CC1` ?
5.00 to 6.00

====

Measured pIC50 accompanies every entry in the list below.
target.desc: BRD4 Bromodomain 1 (BRD4 BD1) (Homo sapiens, UniProt O60885)
Construct: 44-168 and BRD4 BD2
assay.procedure: AlphaScreen binding assay, BRD4 BD1
run.parameters: His-tagged BRD4 BD1 50 nM, biotinylated H4 (1-21) K5/8/12/16 tetra-acetylated peptide 50 nM, compounds listed under IC50 range headings
Protocol: The binding of Example compounds to BRD4 Bromodomain 1 and BRD4 Bromodomain 2 was assessed using 384-well AlphaScreen assay technology. His-epitope tagged BRD4 BD144-168 and BRD4 BD2333-460 were cloned, expressed, and purified to homogeneity. BRD4 BD1 and BRD4 BD2 binding and inhibition was assessed by monitoring the engagement of biotinylated Histone H4 (1-21) K5/8/12/16 tetra-acetylated peptide with the targets using the AlphaScreen technology (PerkinElmer). […]
pIC50: −log10 of the molar value.

These solved cases illustrate the format of a correct answer.
[[record]]
given_smiles = "CCCOc1c(C2CCN(S(C)(=O)=O)CC2)ccc2c1CC[C@H](C)N2C(C)=O"
result_type = "pIC50"
value_reported = "≤ 5.00"

[[record]]
given_smiles = "COc1cccc(Oc2c(-c3cnn(C4CCNCC4)c3)ccc3c2CC[C@H](C)N3C(=O)C2CC2)n1"
result_type = "pIC50"
value_reported = "6.00 to 7.00"

[[record]]
given_smiles = "C[C@H]1CCc2c(ccc(-c3nnc(N)s3)c2OC2CCC2)N1C(=O)C1CC1"
result_type = "pIC50"
value_reported = "6.00 to 7.00"

[[record]]
given_smiles = "CCCOc1c(C2CCN(C(=O)NCC)CC2)ccc2c1CC[C@H](C)N2C(C)=O"
result_type = "pIC50"
value_reported = "≤ 5.00"


Consider the additional compound presented here.
Request body: readout pIC50, system BRD4 Bromodomain 1 (BRD4 BD1) (Homo sapiens, UniProt O60885), query `COC(=O)N1c2ccc(-c3cnn(C4CCNCC4)c3)c(Oc3cccc(Cl)c3)c2CC[C@@H]1C` . Return the value.
6.00 to 7.00
